- System: TK-10
- Experimental protocol: NCI tumour cell line growth inhibition, 48 h
The source made the active and inactive calls. No stated cut-off is given here; in the data, active = GI50 up to about 1.1 µM and inactive = higher.
Just give me one of these, please: 1 (active), 0 (inactive)

Examples from the recorded data:
>>> class_name("O=C1N(c2ccccc2)C(=O)C2(SC=NN2Cc2ccccc2)N1c1ccccc1 (stereo unspecified)")
0
>>> class_name("COc1ccc([C@@]23Oc4cc(OC)cc(OC)c4[C@]2(O)[C@H](O)[C@H](C(=O)N(C)C)[C@H]3c2ccccc2)cc1 [ROCAGLAMIDE]")
1
>>> class_name("N#Cc1cccc2c1Nc1ccccc1S2")
0
>>> class_name("CC(=O)Nc1ccc2c(c1)/C(=C\\c1ccc([N+](C)(C)C)cc1)c1ccccc1-2")
0

Recorded test call requested for O=C(O)CC1OCC=C2CN3CCC45C6=CC(=O)C(O)=C([N+](=O)[O-])C6=NC4C1C2CC35 (stereo unspecified)
0

Recorded test call requested for COC(=O)C1CC2(C)C=CC1N(C(=O)OCc1ccccc1)C2 (stereo unspecified)
0

Recorded test call requested for O=C1N[C@H]2C(=O)c3c(Cl)sc(Cl)c3[C@H]2O1
0

Taken from ChEMBL document CHEMBL1201862.
